Numbers sourced from PubChem BioAssay AID210.

tested on: CD2F1 mice, ip Colon 26 adenocarcinoma, median survival T/C; test: NCI In Vivo Anticancer Drug Screen. Data for tumor model Colon 26 Adenocarcinoma (intraperitoneal) in CD2F1 (CDF1) mice; conditions: endpoint: median survival time; dose: 6.25 mg/kg/injection; schedule: Q04DX003 (ip); vehicle: saline; higher = longer survival
Inconclusive results and toxic doses are left out.
Form field: T/C (one value per entry).

The following compounds have reported results that may help.
>>> obsvalue("OCCN1CCN(CC/C=C2/c3ccccc3Sc3ccc(C(F)(F)F)cc32)CC1")
"91 % of control"
>>> obsvalue("C1CN(P2(N3CC3)=NP(N3CC3)(N3CC3)=NP(N3CC3)(N3CC3)=N2)CCO1 (stereo not given)")
"92 % of control"
>>> obsvalue("CC[C@](O)(C(=O)O)c1cc2n(c(=O)c1CO)Cc1cc3ccccc3nc1-2")
"114 % of control"
>>> obsvalue("Oc1ccc(C2CCCCC2)cc1CN1CCCCC1")
"114 % of control"

Now consider the entry below.
// query Please look up its T/C: [N-]=[N+]=CC(=O)CCC(N)C(=O)O (stereo not given)
// result 119 % of control
